System: PC-3 prostate
experiment summary: NCI-60 one-dose screen, 48 h (100 = growth as untreated, 0 = no growth, -100 = all killed)
condition info: 10 µM unless noted
About 83,000 compounds went through this panel and 20% of them were active in at least one assay; those are over-represented in the sample as a whole.
Below, each of the compounds is paired with its reported growth value.
quantity: growth (%)

compound=CCN(CC)CCCNCc1cc(-c2ccccc2)nc2cc(Cl)ccc12 test_target="PC-3 prostate" quantity=growth result_unit=% result_value=37
compound=COCCCOc1cc(C[C@@H](C[C@H](N)[C@@H](O)C[C@H](C(=O)NCC(C)(C)C(N)=O)C(C)C)C(C)C)ccc1OC test_target="PC-3 prostate" quantity=growth result_unit=% result_value=90.7
compound=CCOC(=O)n1cc(-c2nonc2-c2cn(C)c3ccccc23)c2ccccc21 test_target="PC-3 prostate" quantity=growth result_unit=% result_value=48.1
compound=CN1CCN(CCOc2ccc(-c3cnc4c(-c5ccc(C(F)(F)F)cc5)cnn4c3)cc2)CC1 test_target="PC-3 prostate" quantity=growth result_unit=% result_value=28.3
compound="CC(CN)[C@@H]1CC[C@]2(CO)CC[C@]3(C)[C@H](CC[C@@H]4[C@@]5(C)CCC(N)C(C)(C)[C@@H]5CC[C@]43C)[C@@H]12 (stereo not given in full)" test_target="PC-3 prostate" quantity=growth result_unit=% result_value=-76.2
compound=O=C(O)c1cn(C2CC2)c2cc(N3CCN(C(=O)N/N=C/c4ccccc4)CC3)c(F)cc2c1=O test_target="PC-3 prostate" quantity=growth result_unit=% result_value=96
compound="C=C(C)[C@@H]1CC[C@]2(CO)CC[C@]3(C)[C@H](CC[C@@H]4[C@@]5(C)CCC(NCCc6ccc(O)cc6)C(C)(C)[C@@H]5CC[C@]43C)[C@@H]12 (stereo not given in full)" test_target="PC-3 prostate" quantity=growth result_unit=% result_value=-84.2
compound="COC(=O)C1=C(C(=O)Nc2cccnc2)C2OC1(C(Cc1ccccc1)Oc1ccccc1)C1OC21 (stereo not given)" test_target="PC-3 prostate" quantity=growth result_unit=% result_value=69.6
compound=COc1ccccc1NC(=O)c1ccc(/C=C/C(=O)c2nccn2C)cc1 test_target="PC-3 prostate" quantity=growth result_unit=% result_value=-49.4
compound="O=C(CCC(=O)c1nc2ncccc2[nH]1)NN1C(=O)CSC1c1ccc(Cl)cc1 (stereo not given)" test_target="PC-3 prostate" quantity=growth result_unit=% result_value=94.3
compound=COc1cc2ncnc(Nc3ccc(F)c(Cl)c3)c2cc1OCC(=O)N1CCN(c2ccc(F)cc2)CC1 test_target="PC-3 prostate" quantity=growth result_unit=% result_value=94.6
compound=O=C(/C=C\c1ccco1)/C=C/c1ccco1 test_target="PC-3 prostate" quantity=growth result_unit=% result_value=95.6
compound=Cn1cc(-c2nonc2-c2c[nH]c3ccc(F)cc23)c2cc(Br)ccc21 test_target="PC-3 prostate" quantity=growth result_unit=% result_value=44.2
compound=O=C1/C(=C/c2ccccc2)CN(C(=O)c2cccnc2)C/C1=C\c1ccccc1 test_target="PC-3 prostate" quantity=growth result_unit=% result_value=-17.6
compound=COc1cc2cc(NCc3ccc(OC(F)F)cc3)nc(C)c2cc1OC test_target="PC-3 prostate" quantity=growth result_unit=% result_value=64.5
compound=O=C1/C(=C/c2ccc(C(F)(F)F)cc2)COc2ccc(O)c(O)c21 test_target="PC-3 prostate" quantity=growth result_unit=% result_value=-36.1
compound=Cc1cc(C(=O)Nc2cc(Nc3ncccc3-c3ncnc4nc[nH]c34)ccc2F)cc(C(F)(F)F)c1 test_target="PC-3 prostate" quantity=growth result_unit=% result_value=72.2
compound=O=C(O)CCCn1c(SCc2c(Cl)cccc2Cl)nc2ccsc2c1=O test_target="PC-3 prostate" quantity=growth result_unit=% result_value=14.5
compound=S=c1ssnc1-c1cccs1 test_target="PC-3 prostate" quantity=growth result_unit=% result_value=94.3
compound="O=C(NCc1ccc2c(c1)OCO2)NCC1CCCC(CNC(=O)NCc2ccc3c(c2)OCO3)C1 (stereo not given)" test_target="PC-3 prostate" quantity=growth result_unit=% result_value=102
compound=CCCCCCCC/C=C\CCCCCCCCOc1ccccc1CC(=O)NCC[N+]1(C)CCCCC1 test_target="PC-3 prostate" quantity=growth result_unit=% result_value=3.49
compound=COc1ccc2nc3ccccc3c(NCc3ccc(F)cc3)c2c1 test_target="PC-3 prostate" quantity=growth result_unit=% result_value=17.1
compound=O=c1ccc2nc(C(F)(F)F)nn(-c3ccccc3)c-2c1 test_target="PC-3 prostate" quantity=growth result_unit=% result_value=84.6
compound=COc1cccc2c(N=NC(=O)c3ccc(S(N)(=O)=O)cc3)c(O)[nH]c12 test_target="PC-3 prostate" quantity=growth result_unit=% result_value=99.1
compound=Cc1cscc(C)c1=S test_target="PC-3 prostate" quantity=growth result_unit=% result_value=77
compound=CCN(CC)c1ccc(/C=C\c2cc(C)c3cc(C)ccc3n2)cc1 test_target="PC-3 prostate" quantity=growth result_unit=% result_value=23.1
compound=COc1cc(-c2nc3ccc(C)cc3[nH]2)ccc1OCC(=O)N=Nc1c(O)[nH]c2ccc(Cl)cc12 test_target="PC-3 prostate" quantity=growth result_unit=% result_value=11.1
compound=O=C(NCc1ccccc1O)c1cccc2ccccc12 test_target="PC-3 prostate" quantity=growth result_unit=% result_value=52.5
compound=CC(C)c1ccc(-n2c(=S)[nH]c3sc4c(c3c2=O)CCC(=O)C4)cc1 test_target="PC-3 prostate" quantity=growth result_unit=% result_value=7.63
compound=CCCCCCCCCCCCCCCCCCOc1ccccc1CC(=O)NCC[N+]1(C)CCOCC1 test_target="PC-3 prostate" quantity=growth result_unit=% result_value=-46.4
compound=O=C1/C(=C/c2ccc(Br)cc2)COc2ccc(O)c(O)c21 test_target="PC-3 prostate" quantity=growth result_unit=% result_value=-26.3
compound=O=C(N/N=C/c1ccc([N+](=O)[O-])cc1)c1ccc2nc(-c3ccc(Cl)cc3)[nH]c2c1 test_target="PC-3 prostate" quantity=growth result_unit=% result_value=21.4
compound=O[C@@H](c1cc(C(F)(F)F)nc2c(C(F)(F)F)cccc12)[C@H]1CCCCN1 test_target="PC-3 prostate" quantity=growth result_unit=% result_value=49.4
compound=COc1ccc2cc(Cn3cc[n+](Cc4ccc5ccccc5c4)c3)ccc2c1 test_target="PC-3 prostate" quantity=growth result_unit=% result_value=19
compound=Cn1cccc1/C=C1\C(=O)Nc2ccccc21 test_target="PC-3 prostate" quantity=growth result_unit=% result_value=94.2
compound="CCN1C(=O)N(CC)C2C1NN=c1s/c(=C3\\C(=O)N(CCc4ccccc4)c4ccccc43)c(=O)n12 (stereo not given)" test_target="PC-3 prostate" quantity=growth result_unit=% result_value=20.5
compound="CC1(C)O[C@H]2OC3CCC(=O)CC3(O)[C@H]2O1 (stereo not given in full)" test_target="PC-3 prostate" quantity=growth result_unit=% result_value=82
compound=CN1CCN(Cc2ccc(NC(=O)c3cncc(C#Cc4cncc5[nH]ncc45)c3)cc2C(F)(F)F)CC1 test_target="PC-3 prostate" quantity=growth result_unit=% result_value=1.19
compound=Cc1cccc(N2CCN(C(=S)c3ccc4c(c3)OCO4)CC2)c1 test_target="PC-3 prostate" quantity=growth result_unit=% result_value=19.5
compound=CCN(CC)S(=O)(=O)c1ccc(S(=O)(=O)N2CCC[C@@H](C(=O)N3CCN(C(=O)OC(C)(C)C)CC3)C2)cc1 test_target="PC-3 prostate" quantity=growth result_unit=% result_value=77.5

====

Tested on: U251 CNS
experiment summary: NCI-60 one-dose screen, 48 h (100 = growth as untreated, 0 = no growth, -100 = all killed)
condition info: 10 µM unless noted
The panel holds about 83,000 compounds, 20% with a hit somewhere; the sample as a whole holds those more often.
quantity: growth (%)

compound=O=C(O)c1cccc(N/C=C/C(=O)c2cc3cc(Br)ccc3oc2=O)c1 result_value=96.9
compound="COC(=O)C1=C(C)NC(C)=C(C(=O)OCC(C)C)C1c1ccccc1[N+](=O)[O-] (centres undefined)" result_value=68.8
compound="O=C(CN1C(=O)NC2NC(=O)NC21)N/N=C/c1ccc(Cl)cc1Cl (centres undefined)" result_value=112
compound=CCc1ccc(CCC(=O)Nc2ncc(Cc3ccc(Cl)cc3)s2)o1 result_value=22.8
compound=O=c1[nH]c(-c2ccc(Cl)cc2)cn1-c1ccc(-n2cc(-c3ccc(Cl)cc3)[nH]c2=O)cc1 result_value=104
compound=COc1ccc(NC(=O)c2ccc(C(=O)Nc3ccc(OC)cc3OC)cc2)c(OC)c1 result_value=46.3
compound=COc1cccc(/C=C/C(=O)c2cc3c(N)c(C(=O)Nc4cccc(Cl)c4C)sc3nc2C)c1 result_value=-78.4
compound=Cc1ncc(C(=O)Nc2ccc(CN3CCN(C)CC3)c(C(F)(F)F)c2)cc1C#Cc1cnc(N)c2cnccc12 result_value=-20.7
compound=CCCCCCCC/C=C\CCCCCCCCOc1ccc(CC(=O)NCC[N+](C)(C)C)cc1 result_value=16.9
